system: ducksalad (Heteranthera limosa); test: Test B flooded paddy test; type: in vivo; details: 250 g ai/ha; flooded paddy test; visual rating on 0 to 100 scale (0 no effect, 100 complete control) after 13 to 15 days
recorded endpoint: Plant response rating, Flood, Ducksalad
API note: the answer field is a bare number with no unit suffix.

Worked examples, 10 compounds total:
INSERT INTO results (compound, test_result) VALUES
  ('CCn1c(Cc2ccccc2)ncc(C(=O)C2=C(O)CCCC2=O)c1=O', 85),
  ('COCC(C)n1c(-c2ccccc2)ncc(C(=O)C2=C(O)CCCC2=O)c1=O (centres unmarked)', 40),
  ('Cn1c(-c2ccccc2)ncc(C(=O)C2=C(O)CCCC2=O)c1=O', 50),
  ('CC(C)n1c(-c2ccccc2)ncc(C(=O)C2=C(O)CCCC2=O)c1=O', 20),
  ('O=C1CCCC(O)=C1C(=O)c1cnc(-c2ccccc2)n(-c2ccc(F)cc2F)c1=O', 60),
  ('CCCCc1ncc(C(=O)C2=C(O)CCCC2=O)c(=O)n1-c1ccccc1', 50),
  ('O=C1CCCC(O)=C1C(=O)c1cnc(-c2cccc(C(F)(F)F)c2)n(C2CCCCC2)c1=O', 85),
  ('CCCc1ncc(C(=O)C2=C(O)CCCC2=O)c(=O)n1Cc1ccccc1', 0),
  ('O=C1CCCC(O)=C1C(=O)c1cnc(-c2ccccc2)n(C2CCSCC2)c1=O', 85),
  ('Cc1ccc(-n2c(-c3ccccc3)ncc(C(=O)C3=C(O)CCCC3=O)c2=O)cc1', 90);

For O=C1CCCC(O)=C1C(=O)c1cnc(-c2ccccc2Br)n(-c2ccccc2)c1=O , write its Plant response rating, Flood, Ducksalad.
0

For CCCc1ncc(C(=O)C2=C(O)CCCC2=O)c(=O)n1-c1ccccc1C , write its Plant response rating, Flood, Ducksalad.
0

For Cc1ccc(C)c(-n2c(-c3ccccc3)ncc(C(=O)c3cnoc3C3CC3)c2=O)c1 , write its Plant response rating, Flood, Ducksalad.
65

For O=C(C1=C(O)C2CCC(C2)C1=O)c1cnc(-c2cc(F)c(F)c(F)c2)n(C2CCCCC2)c1=O (centres unmarked) , write its Plant response rating, Flood, Ducksalad.
80

For COCCn1c(-c2ccsc2)ncc(C(=O)C2=C(O)C3CCC(C3)C2=O)c1=O (centres unmarked) , write its Plant response rating, Flood, Ducksalad.
80

For COCCCn1c(-c2cccc(Br)c2)ncc(C(=O)C2=C(O)CCCC2=O)c1=O , write its Plant response rating, Flood, Ducksalad.
85

For COCCn1c(-c2cccc(F)c2)ncc(C(=O)C2=C(O)C3CCC(C3)C2=O)c1=O (centres unmarked) , write its Plant response rating, Flood, Ducksalad.
100

---

tested on: barnyardgrass (Echinochloa crus-galli); assay: Test A pre-/postemergence plant response; assay type: in vivo; settings: Postemergence, 125 g ai/ha; 0 to 100 scale where 0 is no effect and 100 is complete control
recorded endpoint: Plant response rating, Barnyardgrass
API note: the answer field is a bare number with no unit suffix.

INSERT INTO assay_data (line_notation, recorded_endpoint, test_result) VALUES
  ('COCCn1c(-c2cccc(C)c2)ncc(C(=O)C2=C(O)CCCC2=O)c1=O', 'Plant response rating, Barnyardgrass', 80);

For COCCn1c(-c2cccc(F)c2)ncc(C(=O)C2=C(O)CCCC2=O)c1=O , write its Plant response rating, Barnyardgrass.
80

For Cc1ccc(-c2ncc(C(=O)C3=C(O)CCCC3=O)c(=O)n2-c2ccccc2)cc1 , write its Plant response rating, Barnyardgrass.
30

For CCCn1c(-c2cccc(Br)c2)ncc(C(=O)C2=C(O)CCCC2=O)c1=O , write its Plant response rating, Barnyardgrass.
90

---

system: corn (Zea mays); test: Test B pre-/postemergence plant response; format: in vivo; details: Preemergence, 125 g ai/ha; scale 0 to 100, 0 no effect, 100 complete control
recorded endpoint: Plant response rating, Corn
API note: the answer field is a bare number with no unit suffix.

Worked examples, 6 compounds total:
INSERT INTO assay_data (compound, test_result) VALUES
  ('O=C1CCCC(O)=C1C(=O)c1cnc(-c2ccccc2)n(CC2CCCO2)c1=O (stereo not shown) [Compound 59]', 0),
  ('CCCCn1c(-c2cc(F)cc(F)c2)ncc(C(=O)C2=C(O)C3CCC(C3)C2=O)c1=O (stereo not shown) [Compound 245]', 25),
  ('Cc1cc(-n2c(-c3ccccc3)ncc(C(=O)C3=C(O)CCCC3=O)c2=O)ccc1F [Compound 53]', 0),
  ('CCCCc1ncc(C(=O)C2=C(O)CCCC2=O)c(=O)n1-c1cccc(C)c1 [Compound 63]', 0),
  ('CCCCc1ncc(C(=O)C2=C(O)CCCC2=O)c(=O)n1-c1ccc(C)cc1 [Compound 67]', 0),
  ('Cn1c(-c2ccccc2)ncc(C(=O)C2=C(O)CCCC2=O)c1=O [Compound 55]', 0);

Consider now this further compound.
For COCCn1c(-c2cc(F)cc(F)c2)ncc(C(=O)C2=C(O)CCCC2=O)c1=O [Compound 119] , write its Plant response rating, Corn.
50

---

Measured Plant response rating, Nutsedge, Yellow accompanies every entry in the list below.
system: yellow nutsedge (Cyperus esculentus); assay: Test B pre-/postemergence plant response; type: in vivo; details: Preemergence, 31 g ai/ha; scale 0 to 100 (0 no effect, 100 complete control)
API note: the answer field is a bare number with no unit suffix.

Worked examples, 2 compounds total:
INSERT INTO measurements (line_notation, target_system, test_result) VALUES
  ('CCCCc1ncc(C(=O)C2=C(O)CCCC2=O)c(=O)n1-c1cccc(C)c1', 'yellow nutsedge (Cyperus esculentus)', 10),
  ('CCCn1c(-c2cccs2)ncc(C(=O)C2=C(O)CCCC2=O)c1=O', 'yellow nutsedge (Cyperus esculentus)', 75);

Consider now this further compound.
Jot down Plant response rating, Nutsedge, Yellow (yellow nutsedge (Cyperus esculentus)) of CCCc1ncc(C(=O)C2=C(O)CCCC2=O)c(=O)n1-c1ccccc1C .
20

---

Measured Crabgrass, Large plant response rating accompanies every entry in the list below.
tested on: large crabgrass (Digitaria sanguinalis); test: Test A pre-/postemergence plant response; type: in vivo; conditions: Postemergence, 125 g ai/ha; visual injury, 0 to 100 scale (0 no effect, 100 complete control), approx. ten days
API note: the answer field is a bare number with no unit suffix.

INSERT INTO results (compound, test_result) VALUES
  ('O=C1CCCC(O)=C1C(=O)c1cnc(-c2ccccc2Br)n(-c2ccccc2)c1=O [Compound 71]', 30),
  ('Cc1ccc(-n2c(-c3ccccc3)ncc(C(=O)C3=C(O)CCCC3=O)c2=O)c(C)c1 [Compound 28]', 40),
  ('O=C1CCCC(O)=C1C(=O)c1cnc(-c2ccc(Cl)s2)n(-c2ccccc2)c1=O [Compound 65]', 30);

Consider now this further compound.
Jot down Crabgrass, Large plant response rating (large crabgrass (Digitaria sanguinalis)) of O=C1CCCC(O)=C1C(=O)c1cnc(-c2ccccc2Cl)n(-c2ccccc2)c1=O [Compound 35] .
50

---

Measured Plant response rating, Pigweed accompanies every entry in the list below.
System: pigweed (Amaranthus retroflexus)
Test: Test B pre-/postemergence plant response
Type: in vivo
Details: Postemergence, 31 g ai/ha; 0 to 100 scale (0 no effect, 100 complete control)
From the text: […] Treated plants and controls were maintained in a greenhouse for 13 to 15 days, after which time all treated plants were visually evaluated and compared to controls. […]
API note: the answer field is a bare number with no unit suffix.

Worked examples, 7 compounds total:
INSERT INTO assay_data (compound, test_result) VALUES
  ('Cc1ccc(F)cc1-n1c(-c2cccc(Cl)c2)ncc(C(=O)C2=C(O)CCCC2=O)c1=O', 65),
  ('CCCn1c(-c2cccc(Cl)c2)ncc(C(=O)C2=C(O)CCCC2=O)c1=O', 65),
  ('COCCn1c(-c2cccc(Cl)c2)ncc(C(=O)C2=C(O)CCCC2=O)c1=O', 85),
  ('COCCn1c(-c2cccc(C)c2)ncc(C(=O)C2=C(O)C3CCC(C3)C2=O)c1=O (centres unmarked)', 85),
  ('CCn1c(-c2ccccc2)ncc(C(=O)C2=C(O)C3CCC(C3)C2=O)c1=O (centres unmarked)', 95),
  ('O=C1CCCC(O)=C1C(=O)c1cnc(-c2cccc(F)c2)n(C2CCCCC2)c1=O', 100),
  ('CCCn1c(-c2ccsc2)ncc(C(=O)C2=C(O)C3CCC(C3)C2=O)c1=O (centres unmarked)', 80);

Consider now this further compound.
Jot down Plant response rating, Pigweed (pigweed (Amaranthus retroflexus)) of COCCCn1c(-c2cccc(F)c2)ncc(C(=O)C2=C(O)C3CCC(C3)C2=O)c1=O (centres unmarked) .
100

---

tested on: downy bromegrass (Bromus tectorum); assay: Test B pre-/postemergence plant response; assay type: in vivo; conditions: Postemergence, 250 g ai/ha; scale 0 to 100
Measured Bromegrass, Downy plant response rating accompanies every entry in the list below.
API note: the answer field is a bare number with no unit suffix.

For Cc1ccc(F)cc1-n1c(-c2ccccc2)ncc(C(=O)C2=C(O)CCCC2=O)c1=O , write its Bromegrass, Downy plant response rating.
85

For Cc1cccc(Cl)c1-n1c(-c2ccccc2)ncc(C(=O)C2=C(O)CCCC2=O)c1=O , write its Bromegrass, Downy plant response rating.
25

For CCCCc1ncc(C(=O)C2=C(O)CCCC2=O)c(=O)n1-c1ccccc1 , write its Bromegrass, Downy plant response rating.
25

For Cc1cc(C)cc(-n2c(-c3ccccc3)ncc(C(=O)C3=C(O)CCCC3=O)c2=O)c1 , write its Bromegrass, Downy plant response rating.
20

From: patent US8952024B2
